Value source: paper doi:10.1101/2020.06.18.159418v1

# Assay System: HuPrP90-231 (Homo sapiens, UniProt P04156)

- Molecule: "Cc1nc2cc(Cl)c(Cl)cc2[nH]1 [compound 1, 5,6-dichloro-2-methyl-1H-benzimidazole]"
  Kd: "> 1000 µM"
